# condition details: by volume, wet dispersion in Isopar G, sonicated 3 minutes; mesylate
# Experimental: The particle size parameters measured in the present disclosure have been obtained by means of laser light diffraction technique, and specifically by means of a Malvern Mastersizer S particle size analyzer having characteristics as set out below. […] The characterization parameters (volume distributions) were measured for at least six times for each sample, and the result is a mean of said measured values for each sample. […]
Parameter: Particle size D(v, 0.9). Scope: all listed entries.
readout kind: Particle size D(v, 0.9) (μm)

# compound, unit descriptor, reported
rows = [
    ("C#CCN[C@@H]1CCc2ccccc21.CS(=O)(=O)O [Example 1, R-(+)-N-propargyl-1-aminoindan mesylate]", "μm", 163.6),
    ("C#CCN[C@@H]1CCc2ccccc21.CS(=O)(=O)O [Example 3, R-(+)-N-propargyl-1-aminoindan mesylate]", "μm", 404.2),
    ("C#CCN[C@@H]1CCc2ccccc21.CS(=O)(=O)O [Example 4, R-(+)-N-propargyl-1-aminoindan mesylate]", "μm", 464.0),
    ("C#CCN[C@@H]1CCc2ccccc21.CS(=O)(=O)O [Reference Example 2, R-(+)-N-propargyl-1-aminoindan mesylate]", "μm", 143.6),
    ("C#CCN[C@@H]1CCc2ccccc21.CS(=O)(=O)O [Reference Example 1, R-(+)-N-propargyl-1-aminoindan mesylate]", "μm", 118.0),
    ("C#CCN[C@@H]1CCc2ccccc21.CS(=O)(=O)O [Example 2, R-(+)-N-propargyl-1-aminoindan mesylate]", "μm", 246.7),
]

---

# condition details: by volume, wet dispersion in Isopar G, sonicated 3 minutes; mesylate
readout kind: Particle size D(v, 0.5) (μm)

# compound, unit descriptor, reported
records = [
    ("C#CCN[C@@H]1CCc2ccccc21.CS(=O)(=O)O [Example 3, R-(+)-N-propargyl-1-aminoindan mesylate]", "μm", 159.6),
    ("C#CCN[C@@H]1CCc2ccccc21.CS(=O)(=O)O [Reference Example 2, R-(+)-N-propargyl-1-aminoindan mesylate]", "μm", 60.2),
    ("C#CCN[C@@H]1CCc2ccccc21.CS(=O)(=O)O [Example 2, R-(+)-N-propargyl-1-aminoindan mesylate]", "μm", 118.7),
    ("C#CCN[C@@H]1CCc2ccccc21.CS(=O)(=O)O [Example 1, R-(+)-N-propargyl-1-aminoindan mesylate]", "μm", 89.0),
    ("C#CCN[C@@H]1CCc2ccccc21.CS(=O)(=O)O [Example 4, R-(+)-N-propargyl-1-aminoindan mesylate]", "μm", 208.5),
    ("C#CCN[C@@H]1CCc2ccccc21.CS(=O)(=O)O [Reference Example 3, R-(+)-N-propargyl-1-aminoindan mesylate]", "μm", 311.2),
    ("C#CCN[C@@H]1CCc2ccccc21.CS(=O)(=O)O [Reference Example 1, R-(+)-N-propargyl-1-aminoindan mesylate]", "μm", 62.6),
]

---

# condition details: by volume, wet dispersion in Isopar G, sonicated 3 minutes; mesylate
readout kind: Particle size D(v, 0.1) (μm)

# molecule, reported
data = [
    ("C#CCN[C@@H]1CCc2ccccc21.CS(=O)(=O)O [Reference Example 1, R-(+)-N-propargyl-1-aminoindan mesylate]", 17.4),
    ("C#CCN[C@@H]1CCc2ccccc21.CS(=O)(=O)O [Example 3, R-(+)-N-propargyl-1-aminoindan mesylate]", 37.4),
    ("C#CCN[C@@H]1CCc2ccccc21.CS(=O)(=O)O [Example 1, R-(+)-N-propargyl-1-aminoindan mesylate]", 30.6),
    ("C#CCN[C@@H]1CCc2ccccc21.CS(=O)(=O)O [Example 4, R-(+)-N-propargyl-1-aminoindan mesylate]", 54.9),
    ("C#CCN[C@@H]1CCc2ccccc21.CS(=O)(=O)O [Example 2, R-(+)-N-propargyl-1-aminoindan mesylate]", 37.0),
    ("C#CCN[C@@H]1CCc2ccccc21.CS(=O)(=O)O [Reference Example 2, R-(+)-N-propargyl-1-aminoindan mesylate]", 14.7),
    ("C#CCN[C@@H]1CCc2ccccc21.CS(=O)(=O)O [Reference Example 3, R-(+)-N-propargyl-1-aminoindan mesylate]", 127.5),
]
